Recorded values, source patent US9549932B2.

target: full-length human ATR protein (Homo sapiens (Human), UniProt Q13535); test: Binding assay ATR (TR-FRET tracer displacement); settings: tracer A, TR-FRET; read-out: ATR binding (tracer A) IC50
Sequence (Q13535 other isoform, or with tags, fused parts or gaps): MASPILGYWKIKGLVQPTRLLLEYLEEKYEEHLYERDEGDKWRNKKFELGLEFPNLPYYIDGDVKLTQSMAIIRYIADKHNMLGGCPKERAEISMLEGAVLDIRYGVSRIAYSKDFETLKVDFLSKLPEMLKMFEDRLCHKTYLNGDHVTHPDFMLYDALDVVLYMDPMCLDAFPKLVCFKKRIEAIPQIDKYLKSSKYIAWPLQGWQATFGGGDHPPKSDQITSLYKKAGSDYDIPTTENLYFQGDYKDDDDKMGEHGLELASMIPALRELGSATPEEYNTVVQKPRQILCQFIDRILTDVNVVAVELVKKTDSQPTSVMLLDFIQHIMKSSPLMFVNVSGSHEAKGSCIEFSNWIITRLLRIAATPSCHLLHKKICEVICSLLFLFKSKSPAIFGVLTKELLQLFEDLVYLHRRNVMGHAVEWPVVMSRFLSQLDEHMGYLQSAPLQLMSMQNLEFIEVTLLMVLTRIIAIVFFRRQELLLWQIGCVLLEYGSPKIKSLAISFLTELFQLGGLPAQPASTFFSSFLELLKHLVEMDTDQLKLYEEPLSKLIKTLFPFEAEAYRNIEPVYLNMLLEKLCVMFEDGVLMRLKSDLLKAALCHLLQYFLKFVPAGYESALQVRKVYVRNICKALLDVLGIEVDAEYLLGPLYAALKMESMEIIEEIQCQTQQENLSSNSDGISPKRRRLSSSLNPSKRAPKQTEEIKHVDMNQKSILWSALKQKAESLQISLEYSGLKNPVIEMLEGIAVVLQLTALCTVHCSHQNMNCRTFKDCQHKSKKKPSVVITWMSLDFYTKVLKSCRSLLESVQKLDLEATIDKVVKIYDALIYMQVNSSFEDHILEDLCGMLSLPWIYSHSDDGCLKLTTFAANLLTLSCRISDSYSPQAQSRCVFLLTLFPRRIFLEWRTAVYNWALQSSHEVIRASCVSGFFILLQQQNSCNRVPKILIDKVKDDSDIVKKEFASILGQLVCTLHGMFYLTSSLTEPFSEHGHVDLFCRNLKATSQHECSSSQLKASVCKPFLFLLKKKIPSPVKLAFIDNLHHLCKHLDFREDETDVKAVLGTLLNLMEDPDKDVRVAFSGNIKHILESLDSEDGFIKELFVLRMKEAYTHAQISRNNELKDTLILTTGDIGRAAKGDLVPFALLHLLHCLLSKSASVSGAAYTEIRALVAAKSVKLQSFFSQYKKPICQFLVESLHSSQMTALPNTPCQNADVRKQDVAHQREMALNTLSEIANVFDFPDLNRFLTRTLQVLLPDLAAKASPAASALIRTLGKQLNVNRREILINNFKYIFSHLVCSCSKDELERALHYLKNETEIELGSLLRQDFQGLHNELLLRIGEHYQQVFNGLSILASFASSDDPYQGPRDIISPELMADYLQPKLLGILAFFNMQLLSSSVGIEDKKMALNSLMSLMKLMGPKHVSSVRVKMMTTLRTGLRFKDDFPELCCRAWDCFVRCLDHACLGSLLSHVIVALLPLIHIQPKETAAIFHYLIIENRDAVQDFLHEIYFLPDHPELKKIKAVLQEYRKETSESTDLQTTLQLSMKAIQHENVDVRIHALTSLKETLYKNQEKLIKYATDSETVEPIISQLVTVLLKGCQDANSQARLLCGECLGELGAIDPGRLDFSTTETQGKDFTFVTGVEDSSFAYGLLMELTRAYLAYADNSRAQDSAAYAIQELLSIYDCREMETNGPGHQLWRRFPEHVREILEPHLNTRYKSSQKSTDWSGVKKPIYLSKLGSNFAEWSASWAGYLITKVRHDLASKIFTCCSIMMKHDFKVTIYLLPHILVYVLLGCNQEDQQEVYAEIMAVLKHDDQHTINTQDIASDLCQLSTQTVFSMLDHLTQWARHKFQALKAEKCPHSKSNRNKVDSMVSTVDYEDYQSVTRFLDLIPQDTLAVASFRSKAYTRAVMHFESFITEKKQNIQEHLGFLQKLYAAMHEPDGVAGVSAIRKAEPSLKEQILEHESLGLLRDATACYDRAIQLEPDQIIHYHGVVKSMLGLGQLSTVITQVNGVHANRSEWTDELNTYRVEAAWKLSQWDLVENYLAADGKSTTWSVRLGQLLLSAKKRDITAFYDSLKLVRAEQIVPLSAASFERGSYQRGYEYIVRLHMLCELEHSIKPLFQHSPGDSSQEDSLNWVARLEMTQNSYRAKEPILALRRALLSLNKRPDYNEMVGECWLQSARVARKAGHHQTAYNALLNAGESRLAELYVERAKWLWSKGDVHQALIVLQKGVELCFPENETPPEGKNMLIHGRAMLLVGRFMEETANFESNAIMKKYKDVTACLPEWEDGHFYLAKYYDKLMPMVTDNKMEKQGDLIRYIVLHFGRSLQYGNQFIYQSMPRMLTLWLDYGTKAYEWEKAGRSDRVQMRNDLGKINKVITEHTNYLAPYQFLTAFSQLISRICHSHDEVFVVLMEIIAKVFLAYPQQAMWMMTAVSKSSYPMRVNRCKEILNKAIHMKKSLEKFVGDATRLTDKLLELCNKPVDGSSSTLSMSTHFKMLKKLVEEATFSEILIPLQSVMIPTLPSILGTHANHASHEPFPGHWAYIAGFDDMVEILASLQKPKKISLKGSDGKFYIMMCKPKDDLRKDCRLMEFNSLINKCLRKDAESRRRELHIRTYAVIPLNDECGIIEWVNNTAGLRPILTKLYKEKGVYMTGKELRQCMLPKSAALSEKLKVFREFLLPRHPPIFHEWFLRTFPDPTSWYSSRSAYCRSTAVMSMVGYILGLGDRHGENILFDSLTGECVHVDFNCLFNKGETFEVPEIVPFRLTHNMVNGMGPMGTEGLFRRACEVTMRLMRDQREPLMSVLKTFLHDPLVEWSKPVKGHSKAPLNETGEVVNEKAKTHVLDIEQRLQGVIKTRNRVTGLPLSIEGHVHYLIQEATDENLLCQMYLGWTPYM
Sequence (Q8WXE1 other isoform, or with tags, fused parts or gaps partner): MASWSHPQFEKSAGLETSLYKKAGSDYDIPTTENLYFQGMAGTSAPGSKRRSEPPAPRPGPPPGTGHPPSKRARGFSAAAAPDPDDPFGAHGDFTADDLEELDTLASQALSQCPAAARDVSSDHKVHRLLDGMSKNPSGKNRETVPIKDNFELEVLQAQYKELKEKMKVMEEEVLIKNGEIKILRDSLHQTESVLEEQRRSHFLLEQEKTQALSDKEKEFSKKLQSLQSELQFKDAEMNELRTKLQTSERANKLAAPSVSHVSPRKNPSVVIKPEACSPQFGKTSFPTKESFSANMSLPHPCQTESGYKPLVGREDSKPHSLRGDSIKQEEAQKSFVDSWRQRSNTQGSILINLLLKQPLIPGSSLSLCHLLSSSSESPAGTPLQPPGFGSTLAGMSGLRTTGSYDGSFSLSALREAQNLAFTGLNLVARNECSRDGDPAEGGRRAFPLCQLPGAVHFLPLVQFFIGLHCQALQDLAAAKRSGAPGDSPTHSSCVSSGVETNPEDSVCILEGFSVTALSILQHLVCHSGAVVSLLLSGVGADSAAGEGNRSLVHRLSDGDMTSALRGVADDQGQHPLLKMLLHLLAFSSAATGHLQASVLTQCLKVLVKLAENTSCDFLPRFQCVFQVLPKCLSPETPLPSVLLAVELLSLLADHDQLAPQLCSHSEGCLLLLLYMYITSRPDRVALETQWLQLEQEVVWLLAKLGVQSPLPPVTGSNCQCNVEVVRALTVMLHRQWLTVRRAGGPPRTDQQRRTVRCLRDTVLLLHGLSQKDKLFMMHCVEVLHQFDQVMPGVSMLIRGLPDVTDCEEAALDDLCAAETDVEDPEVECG
Property name: pIC50
Schema: pIC50 number; meaning minus log10 of the concentration expressed in molar units.

CC(C)Oc1ncccc1-c1cc(N2CCOCC2)nc2c(-c3ccn[nH]3)nccc12: 6.38
c1ccc(-c2cc(N3CCOCC3)nc3c(-c4cc[nH]n4)nccc23)cc1: 6.87
c1cnc2ccc(-c3cc(N4CCOCC4)nc4c(-c5ccn[nH]5)nccc34)cc2c1: 7.05

Please look at the following compound next.
Entry Fc1ccc(-c2cc(N3CCOCC3)nc3c(-c4ccn[nH]4)nccc23)c(F)c1 , tested on full-length human ATR protein (Homo sapiens (Human), UniProt Q13535), has a reported pIC50 of 7.47
